# assay-explanation: Selectivity ratio of Ki for human alpha-carbonic anhydrase 2 to Ki for Cryptococcus neoformans beta-carbonic anhydrase
# note: exactly 40 is not below, so it is F; use T for Ratio Ki strictly under it

>  <molecule-smiles>
NS(=O)(=O)c1ccc(CC/N=C/c2c(F)c(F)cc(F)c2F)cc1

>  <class-name>
F

$$$$
>  <molecule-smiles>
NS(=O)(=O)c1ccc(CC/N=C/c2ccc(-c3ccccn3)cc2)cc1

>  <class-name>
T

$$$$
>  <molecule-smiles>
NS(=O)(=O)c1ccc(/N=C/c2ccc(-c3ccccc3)cc2)c(F)c1

>  <class-name>
F

$$$$
>  <molecule-smiles>
NS(=O)(=O)c1ccc(CC/N=C/c2c[nH]c3ccc(Br)cc23)cc1

>  <class-name>
F

$$$$
>  <molecule-smiles>
NS(=O)(=O)c1ccc(/N=C/c2ccco2)c(F)c1

>  <class-name>
T

$$$$
>  <molecule-smiles>
NS(=O)(=O)c1ccc(CC/N=C/c2ccc(-c3ccccc3)cc2)cc1

>  <class-name>
F

$$$$
>  <molecule-smiles>
CSc1ccc(/C=N/CCc2ccc(S(N)(=O)=O)cc2)cc1

>  <class-name>
T

$$$$
>  <molecule-smiles>
COc1cc([N+](=O)[O-])ccc1/C=N/CCc1ccc(S(N)(=O)=O)cc1

>  <class-name>
T

$$$$
>  <molecule-smiles>
NS(=O)(=O)c1ccc(CC/N=C/c2cccc(Br)c2O)cc1

>  <class-name>
F

$$$$
